Some compounds, each annotated with its measured CLi.
# Organism: Homo sapiens
# ASSAY_NOTES: Intrinsic clearance in human liver microsomes
# Assay type: ADME, Microsome
READOUT_KIND: CLi (mL/min/g)

> print(dat)
                                 cpd.smiles  unit.label  value.qualifier  result.number
1  Cc1ncc(Cc2cn(CC(=O)N3CCN(c4ccc(Cl)cc4)CC3)c(SCc3ccc(F)cc3)nc2=O)cn1    mL/min/g                =              7
2  Cn1cc(Cc2cn(CC(=O)N3CCN(c4ccc(Cl)c(Cl)c4)CC3)c(SCc3ccc(F)cc3)nc2=O)cn1    mL/min/g                =             11
3  O=C(Cn1cc(Cc2cnc(N3CCOCC3)nc2)c(=O)nc1SCc1ccc(F)cc1)N1CCN(c2ccc(Cl)cc2)CC1    mL/min/g                >             50

====

# Species on record: Rattus norvegicus
# ASSAY_NOTES: Intrinsic clearance in rat liver microsomes
# Type: ADME, Microsome
Would you please tag the item fulfilled when its CLi is 3 mL/min/g or above, and not fulfilled when it is below?

> print(dat)
                                 cpd.smiles    label.class
1  COc1ncc(Cc2cn(CC(=O)N3CCN(c4ccc(Cl)cc4)CC3)c(SCc3ccc(F)cc3)nc2=O)cn1  not fulfilled
2  O=C(Cn1cc(Cc2cnc(N3CCOCC3)nc2)c(=O)nc1SCc1ccc(F)cc1)N1CCN(c2ccc(Cl)cc2)CC1      fulfilled
3  Cn1cc(Cc2cn(CC(=O)N3CCN(c4ccc(Cl)c(Cl)c4)CC3)c(SCc3ccc(F)cc3)nc2=O)cn1      fulfilled
4  COc1ncc(Cc2cn(CC(=O)N3CCN(c4ccc(Cl)c(Cl)c4)CC3)c(SCc3ccc(F)cc3)nc2=O)cn1  not fulfilled
5  COc1ncc(Cc2cn(CCCC(=O)N3CCN(c4ccc(Cl)cc4)CC3)c(SCc3ccc(F)cc3)nc2=O)cn1      fulfilled

====

# Organism: Homo sapiens
# ASSAY_NOTES: Intrinsic clearance in human liver microsomes
# Type: ADME, Microsome
Recorded CLi by entry
READOUT_KIND: CLi (mL/min/g)

> print(dat)
                                 cpd.smiles  readout.kind  unit.label  value.qualifier  result.number
1  COc1ncc(Cc2cn(CC(=O)N3CCN(c4ccc(Cl)cc4)CC3)c(SCc3ccc(F)cc3)nc2=O)cn1           CLi    mL/min/g                =              3
2  Cn1cc(Cc2cn(CC(=O)N3CCN(c4ccc(Cl)cc4)CC3)c(SCc3ccc(F)cc3)nc2=O)cnc1=O           CLi    mL/min/g                =              4
3  COc1ncc(Cc2cn(CCCC(=O)N3CCN(c4ccc(Cl)cc4)CC3)c(SCc3ccc(F)cc3)nc2=O)cn1           CLi    mL/min/g                >             50
4  COc1ncc(Cc2cn(CC(=O)N3CCN(c4ccc(Cl)c(Cl)c4)CC3)c(SCc3ccc(F)cc3)nc2=O)cn1           CLi    mL/min/g                =              7
